The values you see were collected from patent US10584098B2.

Tested on: P. falciparum strain Dd2
Test: SYBR green antiplasmodial assay, strain Dd2
Format: cell-based, Plasmodium falciparum
Conditions: Plasmodium falciparum, DD2; 72 h, multidrug resistant strain; read-out: IC50, nM, P. falciparum strain Dd2

compound | valueUnits | IC50
COc1cc2[nH]c(C)c(-c3ccc(Oc4ccc(OC(F)(F)F)cc4)cc3)c(=O)c2cc1Cl [ELQ-300, reference compound] | nM | 6
O=C1C(O)=C([C@H]2CC[C@H](c3ccc(Cl)cc3)CC2)C(=O)c2ccccc21 [Atovaquone, reference compound] | nM | 0.2

###

Test system: P. falciparum strain Tm90-C2B
Test: SYBR green antiplasmodial assay, strain Tm90-C2B
Format: cell-based, Plasmodium falciparum
Conditions: 72 h, resistant to chloroquine and atovaquone; read-out: IC50, nM, P. falciparum strain Tm90-C2B
experimentalEndpoint: IC50 (nM)

molecule | experimentalEndpoint | measured
CCOC(=O)OCOc1c(-c2ccc(Oc3ccc(OC(F)(F)F)cc3)cc2)c(C)nc2cc(OC)c(Cl)cc12 [ELQ-331] | IC50 | 4
COc1cc2nc(C)c(-c3ccc(Oc4ccc(OC(F)(F)F)cc4)cc3)c(OCOC(=O)OC(C)C)c2cc1Cl [ELQ-330] | IC50 | 47
CCOC(=O)OC(C)Oc1c(-c2ccc(Oc3ccc(OC(F)(F)F)cc3)cc2)c(C)nc2cc(OC)c(Cl)cc12 (stereo not drawn) [ELQ-387] | IC50 | 231
